procedure.details: total protein half-life in vivo (active degradation + dilution); higher = more stable protein
condition.info: wild type E. coli NCM3722; growth: C-lim chemostat; doubling time 6 h
// condition not met strictly below 5 h in total protein half-life in vivo; condition met otherwise

>>> class_label("MAISIKGVNTGVIRKSNNFIALALKIKEPRNKESLFFMSVMELRDLLIALESRLHQKHKLDAAAHLQYEQARDKVIKKMAENIPEILVDELKNADINRRVNTLELTDNQGENLTFVLTLHDGSKCELVVNELQIEMLARAIIHAINNAEMRELALRITSLLDFLPLYDVDCQDNGNLEYDTYSQPEWKHNLFDHYLAVLYRFKDESGKEQFSGAVVKTREATPGKEIEAITRRMLDFSPRLKKLAGVPCQVYVRTVAANNAQPLTQDQCLRALHHLRVQSTSKTAPQAK")
"condition not met"

Prompt: Please check the record MTEPLKPRIDFDGPLEVDQNPKFRAQQTFDENQAQNFAPATLDEAQEEEGQVEAVMDAALRPKRSLWRKMVMGGLALFGASVVGQGVQWTMNAWQTQDWVALGGCAAGALIIGAGVGSVVTEWRRLWRLRQRAHERDEARDLLHSHGTGKGRAFCEKLAQQAGIDQSHPALQRWYASIHETQNDREVVSLYAHLVQPVLDAQARREISRSAAESTLMIAVSPLALVDMAFIAWRNLRLINRIATLYGIELGYYSRLRLFKLVLLNIAFAGASELVREVGMDWMSQDLAARLSTRAAQGIGAGLLTARLGIKAMELCRPLPWIDDDKPRLGDFRRQLIGQVKETLQKGKTPSEK [P0A8R7] and state if its total protein half-life in vivo is at or above 5 h.
Response: condition not met

Prompt: Could you verify whether the entry MVTINNARKILQRVDTLPLYLHAYAFHLNMRLERVLPADLLDIASENNLRGVKIHVLDGERFSLGNMDDKELSAFGDKARRLNLDIHIETSASDKASIDEAVAIALKTGASSVRFYPRYEGNLRDVLSIIANDIAYVRETYQDSGLTFTIEQHEDLKSHELVSLVKESEMESLSLLFDFANMINANEHPIDALKTMAPHITQVHIKDALIVKEPGGLGHKACISGQGDMPFKALLTHLICLGDDEPQVTAYGLEEEVDYYAPAFRFEDEDDNPWIPYRQMSETPLPENHLLDARLRKEKEDAINQINHVRNVLQQIKQEANHLLNH shows total protein half-life in vivo of no less than 5 h?
Response: condition not met

Prompt: Assess whether reported total protein half-life in vivo for MSNTPIELKGSSFTLSVVHLHEAEPKVIHQALEDKIAQAPAFLKHAPVVLNVSALEDPVNWSAMHKAVSATGLRVIGVSGCKDAQLKAEIEKMGLPILTEGKEKAPRPAPTPQAPAQNTTPVTKTRLIDTPVRSGQRIYAPQCDLIVTSHVSAGAELIADGNIHVYGMMRGRALAGASGDRETQIFCTNLMAELVSIAGEYWLSDQIPAEFYGKAARLQLVENALTVQPLN sits at 5 h or higher.
Response: condition met

Prompt: Is total protein half-life in vivo at least 5 h? Consider MSIEIANIKKSFGRTQVLNDISLDIPSGQMVALLGPSGSGKTTLLRIIAGLEHQTSGHIRFHGTDVSRLHARDRKVGFVFQHYALFRHMTVFDNIAFGLTVLPRRERPNAAAIKAKVTKLLEMVQLAHLADRYPAQLSGGQKQRVALARALAVEPQILLLDEPFGALDAQVRKELRRWLRQLHEELKFTSVFVTHDQEEATEVADRVVVMSQGNIEQADAPDQVWREPATRFVLEFMGEVNRLQGTIRGGQFHVGAHRWPLGYTPAYQGPVDLFLRPWEVDISRRTSLDSPLPVQVLEASPKGHYTQLVVQPLGWYNEPLTVVMHGDDAPQRGERLFVGLQHARLYNGDERIETRDEELALAQSA
Response: condition not met
